System: Fibroblast
protocol-details: Multiplex assay against human fibroblast
Type: toxicity, cell-based
cond: 12 h, 1 µM, compound concentration 1 uM, replicate 2
measurement-label: Population Fragmented Nuclei (%)
Numbers only, in %.

Cl.O=C(c1ccc(Nc2nccc(-c3cc4ccccc4s3)n2)cc1)N1CCC(N2CCCC2)CC1; 53

Parameters: items (list). Returns: Population Fragmented Nuclei (%) for each item.
1. CNC(=O)c1ccc(Nc2nc(OC3CCCC3)c3c(-c4ccc5nc(C)oc5c4)c[nH]c3n2)c(OC)c1
2. NC(=O)c1cccc(-c2cc(Nc3ccc(OC(F)(F)F)cc3)ncn2)c1
3. Cl.O=c1c2cccn2c2ccccc2n1CCCN1CCC(c2ccc(Cl)cc2)CC1
4. CN1C2CCC1CC(OC(c1ccc(F)cc1)c1ccc(F)cc1)C2.Cl (stereo unspecified)

1: 60; 2: 42; 3: 16; 4: 5

Kindly note the recorded Population Fragmented Nuclei (%) for COc1cccc2cc(-c3nc([C@H]4CC[C@H](C(=O)O)CC4)n4ncnc(N)c34)[nH]c12 , which is 68

* * *

Give measured Population Mitotic Cells (%) for each item. Keep answers brief.
Test system: HEK-293T
protocol-details: Multiplex assay against HEK293T
Format: toxicity, cell-based
cond: human, 24 h, 1 µM, compound concentration 1 uM, replicate 2
Numbers only, in %.

CCOC(=O)c1c(C)[nH]c2ccc3c(c12)CN1CCc2cc(OC)ccc2C1O3 (stereo not drawn); 51
COc1ccc(S(=O)(=O)N(CCO)c2ccccc2CN(C)C/C=C/c2ccc(Cl)cc2)cc1.O=P(O)(O)O; 56

Now for the compound whose Population Mitotic Cells (%) we want.
Kindly note the recorded Population Mitotic Cells (%) for CN(C)C(=O)C(CCN1CCC(O)(c2ccc(Cl)cc2)CC1)(c1ccccc1)c1ccccc1.Cl [LOPERAMIDE HYDROCHLORIDE] , which is 34

* * *

System: Fibroblast
protocol-details: Multiplex assay against human fibroblast
Type: toxicity, cell-based
cond: 48 h, 1 µM, compound concentration 1 uM, replicate 1
measurement-label: Population Pyknosed Nuclei (%)
Give bare numbers, in %.

Parameters: items (list). Returns: Population Pyknosed Nuclei (%) for each item.
1. O=C(Nc1ccc(Cl)cc1)Nc1cccc(-c2cccc(N3CCCC3)n2)c1
2. CCOc1cc(C(=O)N2CCC(N3CCN(C)CC3)CC2)ccc1Nc1ncc2c(n1)N(C1CCCC1)c1ccccc1C(=O)N2C

[7, 10]

* * *

Tested on: Fibroblast
protocol-details: Multiplex assay against human fibroblast
Assay type: toxicity, cell-based
cond: 12 h, 1 µM, compound concentration 1 uM, replicate 2
Give measured Population Tubulin-Different-Phenotype (%) for each item. Keep answers brief.
Give bare numbers, in %.

Would you please look over these solved cases?
CCCn1c(=O)c2[nH]c(-c3cnn(Cc4cccc(C(F)(F)F)c4)c3)nc2n(CC)c1=O; 28
O=C(Nc1ccc(Cl)cc1)Nc1cccc(-c2cccc(N3CCCC3)n2)c1; 12
CNC(=O)c1ccc(Nc2nc(OC3CCCC3)c3c(-c4ccc5nc(C)oc5c4)c[nH]c3n2)c(OC)c1; 86
COc1cc(N2CCN(C)CC2)ccc1Nc1ncc2c(n1)N(C)c1ccccc1C(=O)N2C; 15
COc1ccc(S(=O)(=O)N(CCO)c2ccccc2CN(C)C/C=C/c2ccc(Cl)cc2)cc1.O=P(O)(O)O; 94
Cc1ccc2nc(NCCN)c3ncc(C)n3c2c1.O=C(O)C(F)(F)F.O=C(O)C(F)(F)F; 11
Cn1nc(C(F)(F)F)cc1-c1cnc(N2CCc3cc(S(=O)(=O)Nc4c(F)cc(Cl)cc4F)cc(N4CCCC4=O)c32)nc1; 72
CCOc1cc2ncc(C#N)c(Nc3ccc(OCc4ccccn4)c(Cl)c3)c2cc1NC(=O)/C=C/CN(C)C; 15

Parameters: items (list). Returns: Population Tubulin-Different-Phenotype (%) for each item.
1. CCOc1cc(C(=O)N2CCC(N3CCN(C)CC3)CC2)ccc1Nc1ncc2c(n1)N(C1CCCC1)c1ccccc1C(=O)N2C
2. Cc1cn(-c2cc(NC(=O)c3ccc(C)c(Nc4nccc(-c5cccnc5)n4)c3)cc(C(F)(F)F)c2)cn1

1. 48
2. 10

* * *

Test system: HEK-293T
protocol-details: Multiplex assay against HEK293T
Type: toxicity, cell-based
cond: human, 24 h, 1 µM, compound concentration 1 uM, replicate 1
measurement-label: Population Mitotic Cells (%)
Give bare numbers, in %.

CCc1cccc(CC)c1NC(=O)c1nn(C)c2c1CCc1cnc(Nc3ccc(C(=O)NC4CCN(C)CC4)cc3OC(F)(F)F)nc1-2; 36
CN1C2CCC1CC(OC(c1ccc(F)cc1)c1ccc(F)cc1)C2.Cl (stereo unspecified); 51
COc1ccc(-c2ccc3c(N4CCOCC4)nc(N4C[C@@H](C)O[C@@H](C)C4)nc3n2)cc1CO; 80
C=CCn1c(=O)c2cnc(Nc3ccc(N4CCN(C)CC4)cc3)nc2n1-c1cccc(C(C)(C)O)n1; 82

Parameters: items (list). Returns: Population Mitotic Cells (%) for each item.
1. COc1ccc(S(=O)(=O)N(CCO)c2ccccc2CN(C)C/C=C/c2ccc(Cl)cc2)cc1.O=P(O)(O)O
2. CCOc1cc(C(=O)N2CCC(N3CCN(C)CC3)CC2)ccc1Nc1ncc2c(n1)N(C1CCCC1)c1ccccc1C(=O)N2C

[38, 36]

* * *

Test system: HEK-293T
protocol-details: Multiplex assay against HEK293T
Assay type: toxicity, cell-based
cond: human, 12 h, 1 µM, compound concentration 1 uM, replicate 2
measurement-label: Population Membrane Permeable-Phenotype (%)
Give bare numbers, in %.

Cl.O=C(c1ccc(Nc2nccc(-c3cc4ccccc4s3)n2)cc1)N1CCC(N2CCCC2)CC1; 11

Parameters: items (list). Returns: Population Membrane Permeable-Phenotype (%) for each item.
1. CNc1cc(Oc2cc(C(=O)Nc3cc(N4CCN(C)CC4)cc(C(F)(F)F)c3)ccc2C)ncn1
2. CN(C)C(=O)C(CCN1CCC(O)(c2ccc(Cl)cc2)CC1)(c1ccccc1)c1ccccc1.Cl [LOPERAMIDE HYDROCHLORIDE]
3. CCn1c(=O)c(-c2ccc(-c3cncs3)cc2Cl)cc2cnc(Nc3ccc(N4CCN(C)CC4)cc3)nc21
4. Cl.O=c1c2cccn2c2ccccc2n1CCCN1CCC(c2ccc(Cl)cc2)CC1

1. 2
2. 6
3. 9
4. 6

* * *

Tested on: U2OS
protocol-details: Multiplex assay against U2OS
Assay type: toxicity, cell-based
cond: human, 12 h, 10 µM, compound concentration 10 uM, replicate 1
Give measured Population Normal (%) for each item. Keep answers brief.
Give bare numbers, in %.

Would you please look over these solved cases?
Cn1nc(C(F)(F)F)cc1-c1cnc(N2CCc3cc(S(=O)(=O)Nc4c(F)cc(Cl)cc4F)cc(N4CCCC4=O)c32)nc1; 95
C=CCn1c(=O)c2cnc(Nc3ccc(N4CCN(C)CC4)cc3)nc2n1-c1cccc(C(C)(C)O)n1; 91
CCn1cc(-c2ccnc3[nH]c(-c4cccc(CN(C)C)c4)cc23)c(-c2ccc(NC(=O)N(C)C)cc2)n1; 90
COc1cc2ncnc(Nc3ccc(F)c(Cl)c3)c2cc1NC(=O)/C=C/CN1CCCCC1 [DACOMITINIB ANHYDROUS]; 96
COC(=N)c1nc2ccc3ncnc(Nc4ccc(OC)cc4F)c3c2s1; 98

Now for the compound whose Population Normal (%) we want.
Entry CCCn1c(=O)c2[nH]c(-c3cnn(Cc4cccc(C(F)(F)F)c4)c3)nc2n(CC)c1=O : Population Normal (%) on U2OS = 80

* * *

Give measured Population Apoptotic (%) for each item. Keep answers brief.
Tested on: U2OS
protocol-details: Multiplex assay against U2OS
Type: toxicity, cell-based
cond: human, 12 h, 1 µM, compound concentration 1 uM, replicate 1
Answers are plain numbers, in %.

Would you please look over these solved cases?
Cc1ccc(C(=O)Nc2cccc(C(F)(F)F)c2)cc1Nc1nc(-c2cccnc2)nc2c1cnn2C; 41
CCCS(=O)(=O)c1nc(NC2CC2)cc(-c2ccc3c(ccn3C3CC(C)(C)NC(C)(C)C3)c2)n1; 39
NC(=O)c1cccc(-c2cc(Nc3ccc(OC(F)(F)F)cc3)ncn2)c1; 27
O=C(Cc1ccc(-c2ccc(OCCN3CCOCC3)cc2)cn1)NCc1ccccc1; 52

Parameters: items (list). Returns: Population Apoptotic (%) for each item.
1. Cl.O=C(c1ccc(Nc2nccc(-c3cc4ccccc4s3)n2)cc1)N1CCC(N2CCCC2)CC1
2. Cc1ccc2nc(NCCN)c3ncc(C)n3c2c1.O=C(O)C(F)(F)F.O=C(O)C(F)(F)F

1. 31
2. 29

Parameters: items (list). Returns: Population Apoptotic (%) for each item.
1. CCCS(=O)(=O)Nc1ccc(F)c(C(=O)c2c[nH]c3ncc(Cl)cc23)c1F
2. Cl.Oc1ccc2c3c1O[C@H]1c4[nH]c5c(c4C[C@@]4(O)[C@@H](C2)N(CC2CC2)CC[C@]314)C[C@@]1(O)[C@H]2Cc3ccc(O)c4c3[C@@]1(CCN2CC1CC1)[C@H]5O4
3. O=C(Nc1ccc(-c2ccnc(Nc3ccc(N4CCOCC4)cc3)n2)cc1)[C@@H]1CCCN1
4. CCN1CCN(Cc2ccc(Nc3ncc(F)c(-c4cc(F)c5nc(C)n(C(C)C)c5c4)n3)nc2)CC1.CS(=O)(=O)O

[55, 38, 45, 46]

Where do the numbers come from? From ChEMBL document CHEMBL4689842.
